The reported measurements were obtained from patent US5041567A.

# Test system: Haemophilus influenzae Wy21
# Method Description: MIC against human bacteria in vitro
# Format: cell-based
# Setup Conditions: Haemophilus influenzae Wy21; 5% chocolated horse blood agar, 18 hours; read-out: MIC
Outcome Measure: MIC (µg/mL)
Numbers only, in µg/mL.

C/C(=C/c1ncc(-c2ccccc2)o1)C[C@@H]1OC[C@H](C[C@@H]2O[C@H]2[C@@H](C)[C@H](C)O)[C@@H](O)[C@H]1O: 12.5

Hi, could you look up MIC for each item in my list?
1. C/C(=C\c1ncc(-c2cccc(S(C)(=O)=O)c2)o1)C[C@@H]1OC[C@H](C[C@@H]2O[C@H]2[C@@H](C)[C@H](C)O)[C@@H](O)[C@H]1O
2. C/C(=C\c1ncc(-c2ccc(S(C)(=O)=O)cc2)o1)C[C@@H]1OC[C@H](C[C@@H]2O[C@H]2[C@@H](C)[C@H](C)O)[C@@H](O)[C@H]1O
3. C/C(=C\c1ncc(-c2ccc(C#N)cc2)o1)C[C@@H]1OC[C@H](C[C@@H]2O[C@H]2[C@@H](C)[C@H](C)O)[C@@H](O)[C@H]1O

Reply |
1
2
2
